Molecular target: recombinant human tau 4R2N (Homo sapiens (Human))
Sequence (P10636 other isoform, or with tags, fused parts or gaps): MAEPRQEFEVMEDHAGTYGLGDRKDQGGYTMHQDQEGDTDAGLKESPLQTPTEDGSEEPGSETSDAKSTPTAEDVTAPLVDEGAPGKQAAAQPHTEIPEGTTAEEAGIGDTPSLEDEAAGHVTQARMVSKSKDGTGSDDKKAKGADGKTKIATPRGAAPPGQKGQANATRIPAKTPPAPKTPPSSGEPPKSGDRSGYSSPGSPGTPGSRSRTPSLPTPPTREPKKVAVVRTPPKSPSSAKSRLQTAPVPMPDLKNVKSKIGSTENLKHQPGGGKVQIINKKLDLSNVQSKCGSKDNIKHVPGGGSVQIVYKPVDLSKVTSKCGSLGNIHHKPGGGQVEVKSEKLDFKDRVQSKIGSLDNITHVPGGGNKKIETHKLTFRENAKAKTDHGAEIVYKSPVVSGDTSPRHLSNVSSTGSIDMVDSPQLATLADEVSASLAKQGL
Experiment: Confirmatory Assay (CONFA), SDS-PAGE quantification of tau monomer and oligomers
Conditions: tau target 300 nM, Tris-HCl pH 7.4, room temperature 3 hours, compound 0.098 uM-50 uM
pIC50: −log10 of the molar value. Counter-ions that a name gives are not always drawn.
Label met when pIC50 >= 5; otherwise not met.

compound	assigned.category
Cc1ccc(-c2c(CCC(=O)N3CCC(O)CC3)oc3ccc(Br)cc23)o1 [Ex. 13]	met
Cc1ccc(-c2c(CCC(C)(C)O)oc3ccc(Br)cc23)o1 [Ex. 15]	met
COc1ccc(-c2ccc3oc(CCC(C)=O)c(-c4ccc(C)o4)c3c2)cn1 [Ex. 2]	met
Cc1ccc(C(C)(O)CCc2oc3ccc(Br)cc3c2-c2ccc(C)o2)cc1 (stereo not shown) [Ex. 16]	met
CC(=O)CCc1oc2cc(-c3cncnc3)ccc2c1-c1ccc(C)o1 [Ex. 30, di HCl Salt]	not met
Cc1ccc(-c2c(CCC(=O)O)oc3ccc(Br)cc23)o1 [Ex. 12]	not met

Source: patent US11306075B2
